Here, each record is paired with measured yeast fitness data.
B1: tRNA (parent)
chain: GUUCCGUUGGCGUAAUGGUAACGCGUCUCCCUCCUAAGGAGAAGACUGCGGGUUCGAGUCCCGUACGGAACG

Variants of: B1
procedure-text: yeast fitness relative to wild type (ratio to wild type); higher = fitter; tRNA-Arg(CCU), competitive growth, 37 C, YPD
This sample holds only a part of the variants without activity.
endpoint: yeast fitness

>>> observed_result("GUUCCGUUGGCGUAAUGGUAACGCGCCUCCCUCUUAAGGAGAAGACUGCGGGUUCGAGUCCCGUACGGAACG [U26C C34U]")
0.716
>>> observed_result("GUUCCGUUGGCGCACUGGUGAUGCAUGUCACUCCUAAGGAGAAGACUGCGGGUUCGCGUCCCGUACGGAACG [U13C A15C A20G C22U G25A C27G C30A A57C]")
0.542
>>> observed_result("GUUCCGUUGGCGUAAUGGUAACGCGUCUCCCUCCUAAGGAGAAGACUGCGGGUUCGGGUCCCGUGCGGAACG [A57G A65G]")
1.02
>>> observed_result("GUUCCGUUGGCGUAAUGGUAACGCGUCUCCCUCCUAAGGAGCAGACUGCGGGUUCGAGUCCAGUACGGAACG [A42C C62A]")
0.719
>>> observed_result("GUUCCGUUGGCGUAAUGGUAACGCGUUUCCCCCCUAAGGAGAAGAGUGCGGGUUCGAGUCCCGUACGGAACG [C27U U32C C46G]")
0.765
>>> observed_result("GUUCCGUUGGCGUAAUGGUAAAGCGUCUCCCCCCUAAGGAGAAGACUGCGGGUUCGAGUCCCGUAUGGAACG [C22A U32C C66U]")
0.503
>>> observed_result("GUUCCGUUGAAGUAAUGGUAACGCGUCUACCUCCUAAGGAGAAGACUGCGGGUUCGAGUCCCGUACGGAACG [G10A C11A C29A]")
0.627
>>> observed_result("GUUCCGUUGGCGUAAUGGUAACGCGUGUCCCUCCUAAGGAGAAGACUGCGGGUUCGAGUCCUGUUCGGAACG [C27G C62U A65U]")
0.554
